This collection of values is drawn from patent US20250313612A1.

- STUDY_SYSTEM: RSV F protein of recombinant mKate-RSV, subtype B (18537) (Respiratory syncytial virus subtype B …, UniProt P13843 26-574)
- EXPERIMENTAL_DETAILS: cell-based or functional assay
Parameter: Neut IC50 subtype B. Scope: all listed entries.
Express it in µg/mL; write the number only.

BINDER	Neut IC50 subtype B [µg/mL]
ADI-14491 (antibody, V domains shown, full-length IgG (yeast-expressed); also called Antibody Number 52; Ab# 52) VH: EVQLVESGGGVVQPGRSLRLSCAASGFTFSDHAMYWVRQAPGKGLEWVALISFDGRNIYYADSVKGRFTISRDNSKNTLYLQMNSLRAEDTAVYYCARDQWLVPDYWGQGTLVTVSS VL: QSVLTQPASVSGSPGQSITISCTGTSSDVGGYNYVSWYQQHPGNAPKLMIYEVSKRPSGVPDRFSGFKSGNTASLTVSGLQAEDEADYYCSSYAGSNSVFGTGTKVTVL	0.102

Read the next record carefully.
stdin: Data request, read-out Neut IC50 subtype B, for ADI-14501 (antibody, V domains shown) VH: QVQLVQSGAEVKKPGSSVKISCKASGGTFKSQAIHWVRQAPGQGLEWMGNIIPTYGSPNFAQRFLGRVTFIADDSTGAASMDLYRLTSEDTAVYYCATAGWFGELVRFDSWGQGTLVTVSS VL: DIVMTQSPATLSVSPGERATLSCRATESISSNLAWYQQKPGQAPRLLIYGASTRATGIPARFSGSGSGTEFTLTINSLQSEDFAVYYCQQYNNWPPLTFGGGTKVDIK
stdout: 2.29
